# assay details: Spectrophotometric titration, acid dissociation constants
# Type: physicochemical
# reported conditions: intrinsic pKa for THP ligands (hydroxyl group), 25 °C, 0.1 M KCl; read-out: pKa2
# Method: The THP^Me and THP^H acid dissociation and conditional formation constants for their Ga^3+ and Fe^3+ complexes were investigated by spectrophotometric measurements. pKa and pM values (defined as –log[M^3+] when [ligand]total = 10 μM, [metal]total = 1 μM and pH = 7.4) are reported in Table 2. A full list of the measured conditional formation constants is provided in the ESI (Tables S1–S3 ^†), together with speciation plots calculated for the pH range of the titration. […]
readout type: pKa
Just the number.

Give pKa for the following compound: Cc1c(O)c(=O)ccn1C [Deferiprone]
9.8
